Reference for the values: patent US20200071424A1

Biological target: cynomolgus monkey EL (cynomolgus monkey)
Assay: cell-based or functional assay
We begin with a simple list: items and their reported Neutralizing activity IC50.
The answer is to be given in nM; state only the numeric part.

binder	measuredResult
h13B3-S2 (antibody, V domains shown) VH: QVQLVQSGAEVKKPGASVKVSCKASGYTFTEYTMHWVRQAPGQGLEWMGSINPYYGGTSYNEKFKDRVTSTRDTSISTAYMELSRLRSDDTVVYYCARYGNYVGYFDYWGQGTTVTVSS VL: EIVLTQSPGTLSLSPGERATLSCRASSSVHYMYWYQQKPGQAPRLLIYYTSNLAPGIPDRFSGSGSGTDFTLTISRLEPEDFAVYYCQQFTSSPYTFGGGTKVEIK	3.6
h16B3-S1 (antibody, V domains shown) VH: EVQLVESGGGLVQPGGSLRLSCAASGFTFSGYTMSWVRQAPGKGLEWVSEISFARDRAFYPDTVKGRFTISRDNSKNTLYLQMNSLRAEDTAVYYCAKLGGRNHDYWYFDVWGQGTTVTVSS VL: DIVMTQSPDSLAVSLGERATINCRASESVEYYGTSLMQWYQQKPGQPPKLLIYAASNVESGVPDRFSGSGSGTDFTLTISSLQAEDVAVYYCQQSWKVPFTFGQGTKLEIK	3.6

Task item: I'd like to know its Neutralizing activity IC50. The binder in question is h53A11-S1 (antibody, V domains shown) VH: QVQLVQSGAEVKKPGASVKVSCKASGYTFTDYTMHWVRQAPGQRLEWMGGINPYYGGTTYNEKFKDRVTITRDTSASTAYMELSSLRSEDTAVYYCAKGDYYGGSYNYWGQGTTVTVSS VL: EIVMTQSLATLSVSPGERATLSCRASQDISNSLHWYQQKPGQAPRLLIKYASQSISGIPARFSGSGSGTEFTLTISSLQSEDFAVYYCQQSNSWPYTFGQGTKLEIK
Reply: 1.7

Task item: I'd like to know its Neutralizing activity IC50. The binder in question is h23H8-S3 (antibody, V domains shown) VH: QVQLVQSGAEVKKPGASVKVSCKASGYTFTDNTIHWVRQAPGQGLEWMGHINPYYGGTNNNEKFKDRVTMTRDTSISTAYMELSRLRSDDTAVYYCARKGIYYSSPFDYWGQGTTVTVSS VL: DIQMTQSPSSLSASVGDRVTITCRASQDINNYLNWYQQKPGKAPKLLISYTSKLHSGVPSRFSGSGSGTDFTLTISSLQPEDFATYYCQQGNTLPFTFGQGTKLEIK
Reply: 1.8

Task item: I'd like to know its Neutralizing activity IC50. The binder in question is h53A11-S2 (antibody, V domains shown) VH: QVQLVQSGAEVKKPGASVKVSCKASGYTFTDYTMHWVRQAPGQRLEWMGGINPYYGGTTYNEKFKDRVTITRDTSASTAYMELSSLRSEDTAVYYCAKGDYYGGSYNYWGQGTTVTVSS VL: EIVMTQSLATLSVSPGERATLSCRASQDISNSLHWYQQKPGQAPRLLIYYASQSISGIPARFSGSGSGTEFTLTISSLQSEDFAVYYCQQSNSWPYTFGQGTKLEIK
Reply: 1.8
